Every entry's value here was drawn from ChEMBL document CHEMBL2163274.

Can you tell me fraction unbound for the items I'm about to list?
Test: Fraction unbound in human plasma
Assay type: ADME, cell-free

Would you kindly share the measured fraction unbound for COc1ccc(-c2cc(CC[C@](C)(C(=O)NO)S(C)(=O)=O)on2)c(F)c1 ?
0.072

And then C[C@@](CCc1cc(-c2ccccc2)no1)(C(=O)NO)S(C)(=O)=O , what is it?
0.013

Please give the result for C[C@@](CCn1cc(-c2ccccc2)cn1)(C(=O)NO)S(C)(=O)=O too.
0.048

Same again, this time with COc1ccc(-c2cn(CC[C@](C)(C(=O)NO)S(C)(=O)=O)nn2)c(F)c1
0.085

Same thing, different compound: C[C@@](CCc1cc(-c2ccccc2)on1)(C(=O)NO)S(C)(=O)=O
0.016

* * *

Experiment: Lipophilicity, log D of the compound at pH 7.4
Type: physicochemical
Details: buffer
Give logD for every item shown.
The answer should be a number; do not append a unit.

Quick one: logD for C[C@@](CCn1ccc(-c2ccccc2)cc1=O)(C(=O)NO)S(C)(=O)=O ?
0.8

Moving on to the next compound: COc1ccc(-c2cn(CC[C@](C)(C(=O)NO)S(C)(=O)=O)nn2)c(F)c1
1.36

Same again, this time with C[C@@](CCn1cc(-c2ccc(Cl)cc2F)nn1)(C(=O)NO)S(C)(=O)=O
1.34

Then this compound: C[C@@](CCc1cc(-c2ccccc2)on1)(C(=O)NO)S(C)(=O)=O
1.31

Then this compound: C[C@@](CCn1cc(-c2ccccc2)cn1)(C(=O)NO)S(C)(=O)=O
1.04

Next: C[C@@](CCc1ccc(-c2ccccc2)cc1)(C(=O)NO)S(C)(=O)=O
2.24

Please give the result for COc1ccc(-c2cc(CC[C@](C)(C(=O)NO)S(C)(=O)=O)on2)c(F)c1 too.
1.23

Follow-up item: C[C@@](CCc1cc(-c2ccccc2)no1)(C(=O)NO)S(C)(=O)=O
0.99

* * *

Biological target: UDP-3-O-acyl-N-acetylglucosamine deacetylase (Pseudomonas aeruginosa, UniProt B5ATN6)
Sequence (B5ATN6 whole entry): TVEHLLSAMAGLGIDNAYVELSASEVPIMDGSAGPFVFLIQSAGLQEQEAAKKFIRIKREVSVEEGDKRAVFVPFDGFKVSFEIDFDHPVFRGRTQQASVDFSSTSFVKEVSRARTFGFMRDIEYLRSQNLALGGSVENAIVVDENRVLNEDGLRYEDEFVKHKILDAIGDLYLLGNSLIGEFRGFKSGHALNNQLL
Assay: Inhibition of Pseudomonas aeruginosa LpxC
Lab note - cut at 4 nM for IC50: met if strictly below, not met if not.

Is IC50 strictly under 4 nM for the entry CC(CCc1cc(-c2cccc(Cl)c2Cl)on1)(C(=O)NO)S(C)(=O)=O (racemic) ?
met

Param item: COc1ccc(-c2cn(CC[C@](C)(C(=O)NO)S(C)(=O)=O)nn2)c(F)c1
met

And C[C@@](CCn1cc(-c2ccc(Cl)c(F)c2)nn1)(C(=O)NO)S(C)(=O)=O ?
met

Try C[C@@](CCn1cc(-c2cccc(F)c2F)nn1)(C(=O)NO)S(C)(=O)=O next.
not met

// next record C[C@@](CCn1cc(-c2ccc(Cl)cc2F)nn1)(C(=O)NO)S(C)(=O)=O
met

Also need COc1ccc(-c2cc(CC[C@](C)(C(=O)NO)S(C)(=O)=O)no2)c(F)c1 , thanks.
met

How about C[C@@](CCn1cc(-c2ccc(Cl)c(Cl)c2)nn1)(C(=O)NO)S(C)(=O)=O ?
met

Similarly, COc1ccc(-c2cc(CC[C@](C)(C(=O)NO)S(C)(=O)=O)on2)c(F)c1 ?
not met

Also Cc1ccc(-c2cn(CC[C@](C)(C(=O)NO)S(C)(=O)=O)nn2)cc1 ?
met

Param item: CC(CCc1cc(-c2cccc(F)c2F)no1)(C(=O)NO)S(C)(=O)=O (racemic)
not met

Entry C[C@@](CCc1cc(-c2ccccc2)on1)(C(=O)NO)S(C)(=O)=O please
met

Same again, this time with COc1cccc(-c2cc(CC[C@](C)(C(=O)NO)S(C)(=O)=O)on2)c1F
not met

Next up: C[C@@](CCn1cc(-c2ccccc2)nn1)(C(=O)NO)S(C)(=O)=O
met

Note, next up: C[C@@](CCc1cc(-c2ccccc2)no1)(C(=O)NO)S(C)(=O)=O
met

Likewise for CC(CCc1cn(-c2ccccc2)nn1)(C(=O)NO)S(C)(=O)=O (racemic) ?
met

Ok, now CC(CCc1cc(-c2cccc(F)c2)on1)(C(=O)NO)S(C)(=O)=O (racemic)
not met

Can you handle C[C@@](CCn1cc(-c2cccc(Cl)c2Cl)nn1)(C(=O)NO)S(C)(=O)=O next?
met

Please give the result for CC(CCc1cnn(-c2ccccc2)c1)(C(=O)NO)S(C)(=O)=O (racemic) too.
not met

// repeat for CC(CCc1cc(-c2ccccc2F)on1)(C(=O)NO)S(C)(=O)=O (racemic) and report
not met

Now this one: CC(CCc1cc(-c2ccccc2)n[nH]1)(C(=O)NO)S(C)(=O)=O (racemic)
not met

And CC(CCn1ncc(-c2ccccc2)n1)(C(=O)NO)S(C)(=O)=O (racemic) ?
not met

Next compound: COc1ccc(-c2cn(CC[C@](C)(C(=O)NO)S(C)(=O)=O)nn2)c(Cl)c1
not met

Would you kindly repeat that for C[C@@](CCn1cc(-c2ccc(F)c(F)c2)nn1)(C(=O)NO)S(C)(=O)=O ?
met

Now this one: Cc1ccc(-c2cc(CCC(C)(C(=O)NO)S(C)(=O)=O)on2)cc1 (racemic)
met

Cool, now CC(CCc1nc(-c2ccccc2)no1)(C(=O)NO)S(C)(=O)=O (racemic)
not met

Try this compound next: C[C@@](CCn1cc(-c2ccccc2)cn1)(C(=O)NO)S(C)(=O)=O
met

One more compound: CC(CCc1nnc(-c2ccccc2)[nH]1)(C(=O)NO)S(C)(=O)=O (racemic)
not met

* * *

Tested on: Pseudomonas aeruginosa
Test: Antibacterial activity against Pseudomonas aeruginosa PAO1
Type: functional
Metric Name: MIC

Requested read-out MIC, target or system Pseudomonas aeruginosa, entry CC(CCc1cnn(-c2ccccc2)c1)(C(=O)NO)S(C)(=O)=O (racemic)
8 µg/mL

Moving on to CC(CCc1nnc(-c2ccccc2)[nH]1)(C(=O)NO)S(C)(=O)=O (racemic)
> 64 µg/mL

Same thing, different compound: C[C@@](CCc1cc(-c2ccccc2)no1)(C(=O)NO)S(C)(=O)=O
0.5 µg/mL

Next up: C[C@@](CCn1cc(-c2ccccc2)nn1)(C(=O)NO)S(C)(=O)=O
1 µg/mL

C[C@@](CCc1cc(-c2ccccc2)on1)(C(=O)NO)S(C)(=O)=O , same question.
0.5 µg/mL

* * *

Test system: Pseudomonas aeruginosa
Assay: Antibacterial activity against Pseudomonas aeruginosa PAO1
Format: functional
Metric Name: MIC (µg/mL)
Hi! Could you send only the number? It should be in µg/mL, unit omitted.

Consider the molecule shown here: COc1cccc(-c2cc(CC[C@](C)(C(=O)NO)S(C)(=O)=O)on2)c1F What is its recorded MIC?
2

Queued: C[C@@](CCn1cc(-c2ccccc2)cn1)(C(=O)NO)S(C)(=O)=O
0.5

C[C@@](CCn1cc(-c2cccc(F)c2F)nn1)(C(=O)NO)S(C)(=O)=O ?
4

Further, for C[C@@](CCn1cc(-c2cccc(Cl)c2Cl)nn1)(C(=O)NO)S(C)(=O)=O ?
2

Further, for C[C@@](CCn1cc(-c2ccc(Cl)c(F)c2)nn1)(C(=O)NO)S(C)(=O)=O ?
2

Note, next up: C[C@@](CCn1cc(-c2ccc(Cl)c(Cl)c2)nn1)(C(=O)NO)S(C)(=O)=O
1

What do you get for C[C@@](CCn1cc(-c2ccc(Cl)cc2F)nn1)(C(=O)NO)S(C)(=O)=O ?
0.5

Then CC(CCc1cc(-c2cccc(F)c2F)no1)(C(=O)NO)S(C)(=O)=O (racemic) ?
2

What about CC(CCc1nc(-c2ccccc2)no1)(C(=O)NO)S(C)(=O)=O (racemic) ?
16

Let us now turn to Cc1ccc(-c2cn(CC[C@](C)(C(=O)NO)S(C)(=O)=O)nn2)cc1
2

Moving on to the next molecule: COc1ccc(-c2cc(CC[C@](C)(C(=O)NO)S(C)(=O)=O)on2)c(F)c1
1

Here is the next molecule: CC(CCc1cc(-c2ccccc2F)on1)(C(=O)NO)S(C)(=O)=O (racemic)
1

Do the same for CC(CCc1cn(-c2ccccc2)nn1)(C(=O)NO)S(C)(=O)=O (racemic) please
8

// repeat for CC(CCn1ncc(-c2ccccc2)n1)(C(=O)NO)S(C)(=O)=O (racemic) and report
32

Also COc1ccc(-c2cc(CC[C@](C)(C(=O)NO)S(C)(=O)=O)no2)c(F)c1 , if possible.
0.5

Can you check Cc1ccc(-c2cc(CCC(C)(C(=O)NO)S(C)(=O)=O)on2)cc1 (racemic) next?
1

For COc1ccc(-c2cn(CC[C@](C)(C(=O)NO)S(C)(=O)=O)nn2)c(F)c1 then?
2

Entry to check: COc1ccc(-c2cn(CC[C@](C)(C(=O)NO)S(C)(=O)=O)nn2)c(Cl)c1
8

What do we get for C[C@@](CCn1cc(-c2ccc(F)c(F)c2)nn1)(C(=O)NO)S(C)(=O)=O ?
4
